target: Cytochrome P450 1A2 (Homo sapiens) (UniProt P05177); assay: Cytochrome panel assay with activity outcomes; settings: recombinant CYP, pro-luciferin dealkylation, luminescence, p450-cyp1a2; series mostly up to 57.1 µM
Sequence (P05177 whole entry, looked up): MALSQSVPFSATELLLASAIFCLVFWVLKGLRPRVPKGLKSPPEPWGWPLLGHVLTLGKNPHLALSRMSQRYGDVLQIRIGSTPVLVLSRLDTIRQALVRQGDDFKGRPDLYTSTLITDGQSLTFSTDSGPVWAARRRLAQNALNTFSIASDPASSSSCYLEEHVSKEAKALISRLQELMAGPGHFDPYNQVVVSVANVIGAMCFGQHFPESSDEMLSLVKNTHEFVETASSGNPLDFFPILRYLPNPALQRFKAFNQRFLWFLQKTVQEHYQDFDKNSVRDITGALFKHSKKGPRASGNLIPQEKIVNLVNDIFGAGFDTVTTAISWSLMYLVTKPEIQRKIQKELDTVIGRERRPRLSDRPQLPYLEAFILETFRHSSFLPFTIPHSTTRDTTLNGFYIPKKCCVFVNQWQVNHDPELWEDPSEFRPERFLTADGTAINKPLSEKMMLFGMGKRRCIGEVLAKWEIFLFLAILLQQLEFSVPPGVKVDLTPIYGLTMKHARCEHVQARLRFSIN
The whole screen tested about 16,000 compounds, of which about 5,700 (36%) were called active. About 24% were inconclusive and are not listed. Calls follow the shape of the dose curve; as a rule, active = well fitted curve in the direction sought with a large enough effect; inconclusive = small, poorly fitted or top-dose-only effect, or effect the other way; inactive = no such curve, though single readings can be large or run the other way. This is one part of the list.
Log the outcome using a class from class 1 = active, class 0 = inactive

Exercise: Test call for this compound, please: CCn1c(CSCc2ccc(C)cc2)nnc1SCC(=O)NCc1ccccc1
Key: class 0

Exercise: Identify the outcome logged in this assay for the compound shown: O=S(=O)(c1ccccc1)N1CCC2(CC1)CN(C(c1ccccc1)c1ccccc1)C2
Key: class 0

Exercise: # outcome recorded in this test, key = Cc1nc2cnc(N3CCOCC3)nc2n(CCC#N)c1=O
Key: class 1

Exercise: Record lookup: outcome of this test for Nc1nnc(SCCOc2cccc(Br)c2)s1 ?
Key: class 1

Exercise: Could you kindly confirm the outcome this assay logged for Cc1ccc(/C=N/NC(=O)CSc2nc3ccccc3n2C)s1 ?
Key: class 1

Exercise: So what was the verdict on Cc1cccc(C(=O)Nc2nnc(-c3ccc(C(C)(C)C)cc3)s2)c1 in this test?
Key: class 0

Exercise: Hi, sorry to bother you, what did the test record for COc1cccc(N(CC(=O)Nc2cccc(C(C)=O)c2)S(C)(=O)=O)c1 ?
Key: class 0

Exercise: Record lookup: outcome of this test for O=C(NNC(=S)NCc1ccco1)c1ccc(Cl)s1 ?
Key: class 1

Exercise: In this assay, the call recorded for COc1cc(Br)c(C(C)NC(=O)c2cccc(Br)c2)cc1OC (centres undefined) was what?
Key: class 1

Exercise: Recorded test call requested for CCCc1nnc(SCC(=O)N2CCCCC2)n1CC1CCCO1 (centres undefined)
Key: class 0

Exercise: // param item: COC(=O)c1ccccc1NC(=O)c1ccc(Cn2cc(Cl)cn2)o1 ; yields the recorded call
Key: class 1

Exercise: For this compound, state the assay outcome: CNc1cc(-c2c(C)noc2C)ncn1
Key: class 1

Exercise: Write down the call the test reported for this compound. Item: CN(C)CCNC(=S)Nc1cccc(Cl)c1
Key: class 0

Exercise: Name the outcome recorded for COc1ccc(C(=O)NC(C)c2cc(OC)c(OC)cc2Br)cc1 (centres undefined) in the assay.
Key: class 1

Exercise: GET /call?item= COc1ccccc1NC(=S)NNC(=O)c1c(Cl)c(C)nn1C returns the recorded outcome of this test.
Key: class 0

Exercise: For Cc1nn(S(=O)(=O)c2cccs2)c(C)c1Sc1ccc([N+](=O)[O-])cc1 , which call appears in the assay record?
Key: class 0

Exercise: Tell me the recorded outcome of this test for O=C(O)c1ccccc1Nc1cccc(OCc2ccc3ccccc3n2)c1 .
Key: class 1

Exercise: Test call for this compound, please: Cc1noc(C)c1-c1cc(NC2CC2)ncn1
Key: class 1

Exercise: Which outcome was assigned to CC(=O)c1cccc(NC(=O)CCC2CCCC2)c1 in this test?
Key: class 1

Exercise: Name the outcome recorded for COc1ccc(Nc2nc(N3CCCCC3)c3ccccc3n2)cc1 in the assay.
Key: class 1

Exercise: How was Fc1ccc(NC(=S)NCCc2ccccc2)c(F)c1F classified in this test?
Key: class 1

Exercise: Look up the recorded call for C[C@@H](CCCCC(=O)Nc1ccc(C(F)(F)F)cc1)NCCc1cnc[nH]1 in this test.
Key: class 0

Exercise: Dear all, I need the recorded test outcome for C=CCNC(=O)C1CCN(S(=O)(=O)CC)CC1 , thank you.
Key: class 0

Exercise: In this assay, the call recorded for COC(=O)c1cnn(C(=O)c2cc(OC)ccc2Br)c1N was what?
Key: class 1

Exercise: For COc1ccc(CC(=O)Nc2ccc(-c3nnc(-c4ccccc4)o3)cc2)cc1 , which call appears in the assay record?
Key: class 0

Exercise: Given CCCCN1C(=O)NC(NC(=O)c2ccco2)(C(F)(F)F)C1=O (centres undefined) , state the outcome it received in this test.
Key: class 0

Exercise: Entry CC(C)CN1CC2(CCN(C(=O)c3cccc(F)c3)CC2)C1 : call = ?
Key: class 0

Exercise: Per the records of this test, what outcome belongs to CC[C@]1(C)CC(=O)NC1=O ?
Key: class 0

Exercise: Check the results log: what was the call for CCCc1nnc(SCC(=O)N2CCCCC2C)n1CC1CCCO1 (centres undefined) ?
Key: class 0

Exercise: Dear all, I need the recorded test outcome for S=C(NCc1ccco1)N1CCN(Cc2ccco2)CC1 , thank you.
Key: class 0

Exercise: Fill in: this test's call for S=C(Nc1ccccc1)Nc1nccs1 is ___
Key: class 1

Exercise: Recorded call for O=C(CSCc1ccccc1)Nc1ccc(S(=O)(=O)N2CCOCC2)cc1 ?
Key: class 0

Exercise: // return assay outcome for Nc1ncnc(N(c2ccccc2)C2CCCCC2)c1[N+](=O)[O-]
Key: class 0

Exercise: Test call for this compound, please: CC(=O)Oc1cc(C(C)C)c(OCCN(C)C)cc1C
Key: class 1

Exercise: Entry Cc1nc2ccccc2n1CC(=O)N/N=C\C=C\c1ccccc1 : call = ?
Key: class 1

Exercise: Hi, do you know how O=P(Cc1cc[n+]([O-])cc1)(c1ccccc1)c1ccccc1 came out in this test?
Key: class 0

Exercise: In this assay, the call recorded for COc1ccccc1NC(=S)NCCc1ccccc1 was what?
Key: class 1

Exercise: What classification did CCC(C)NS(=O)(=O)c1ccc(NC(=O)CCC2CCCCC2)cc1 (centres undefined) end up with in this test?
Key: class 0

Exercise: Called result for O=C(CCC1CCCCC1)Nc1c2c(nn1-c1ccc(F)cc1)CS(=O)(=O)C2
Key: class 0

Exercise: Dear all, I need the recorded test outcome for CC(C)NC(=O)N1CCCC2(CCN(C(=O)c3cccc(F)c3)CC2)C1 , thank you.
Key: class 0

Exercise: Kindly provide the recorded test outcome for the following compound: COC(=O)C1Cc2c([nH]c3ccccc23)CN1 (centres undefined)
Key: class 1

Exercise: Please share the test call associated with COCCNc1cc(-c2c(C)noc2C)ncn1 .
Key: class 1

Exercise: Test call, this compound: c1ccc(-c2nc3ccccc3o2)nc1
Key: class 1

Exercise: Please let me know the test result on file for Cc1nc2ccccc2n1CC(=O)N/N=C\c1ccccn1 .
Key: class 0

Exercise: Hi, do you know how CCNc1ncc2ncc(=O)n(C[C@H]3CCCO3)c2n1 came out in this test?
Key: class 1

Exercise: Please share the test call associated with COc1ccc(N2C(=O)NC(NC(=O)c3ccncc3)(C(F)(F)F)C2=O)cc1 (centres undefined) .
Key: class 0

Exercise: Record request — test call for COc1ccc(NC(=O)c2ccc(COc3ccccc3)o2)cc1
Key: class 1

Exercise: Can you look up the reported call for O=C(NC1(C(F)(F)F)NC(=O)N(Cc2cccnc2)C1=O)c1ccccc1 (centres undefined) for me?
Key: class 1

Exercise: Field: outcome | Entry: CCCCC[C@H](O)c1cccc(OCc2ccc3ccccc3n2)c1
Key: class 1
